# assay.system: Lyp (Homo sapiens, UniProt Q9Y2R2)
# Sequence (Q9Y2R2 24-289 limits assumed): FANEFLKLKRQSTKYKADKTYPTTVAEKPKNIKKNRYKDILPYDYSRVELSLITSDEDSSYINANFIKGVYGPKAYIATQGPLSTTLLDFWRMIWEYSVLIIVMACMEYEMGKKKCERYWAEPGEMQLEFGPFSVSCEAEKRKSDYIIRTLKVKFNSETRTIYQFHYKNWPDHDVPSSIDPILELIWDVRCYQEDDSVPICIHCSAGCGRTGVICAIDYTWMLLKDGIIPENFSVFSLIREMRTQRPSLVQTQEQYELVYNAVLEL
property: IC50

Indicate the recorded IC50 value for this compound: `CC[C@@H](C)C[C@@H](C)/C=C(C)/C=C/C=C/C=C(\C)C(=O)c1c(O)c(-c2ccc(O)cc2)cn(O)c1=O` > 100 µM

---

# assay.system: PTPRA (Homo sapiens)
# Sequence (P18433 241-501 limits assumed): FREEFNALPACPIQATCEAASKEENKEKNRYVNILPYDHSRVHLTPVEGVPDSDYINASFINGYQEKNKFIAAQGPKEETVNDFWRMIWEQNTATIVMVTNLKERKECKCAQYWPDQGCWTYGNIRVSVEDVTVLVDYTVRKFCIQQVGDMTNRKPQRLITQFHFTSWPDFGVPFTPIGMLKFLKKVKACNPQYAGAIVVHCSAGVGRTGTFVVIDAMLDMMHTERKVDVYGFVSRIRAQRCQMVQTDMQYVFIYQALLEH
pIC50: −log10 of the molar value.
property: pIC50

Indicate the recorded pIC50 value for this compound: `CC[C@@H](C)C[C@@H](C)/C=C(C)/C=C/C=C/C=C(\C)C(=O)c1c(O)c(-c2ccc(O)cc2)cn(O)c1=O` < 4.00

---

# assay.system: Meg2 (Homo sapiens)
# Sequence (P43378 303-574 limits assumed): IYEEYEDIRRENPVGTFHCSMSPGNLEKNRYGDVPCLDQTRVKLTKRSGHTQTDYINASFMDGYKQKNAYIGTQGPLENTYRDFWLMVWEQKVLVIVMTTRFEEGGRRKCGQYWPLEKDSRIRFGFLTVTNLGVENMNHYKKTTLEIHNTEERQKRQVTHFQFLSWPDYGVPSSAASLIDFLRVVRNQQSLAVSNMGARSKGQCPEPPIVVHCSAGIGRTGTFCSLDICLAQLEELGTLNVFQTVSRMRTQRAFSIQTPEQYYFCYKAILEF
property: IC50

Fill in IC50 for CC[C@@H](C)C[C@@H](C)/C=C(C)/C=C/C=C/C=C(\C)C(=O)c1c(O)c(-c2ccc(O)cc2)cn(O)c1=O [Fumos, Fumosorinone] tested with Meg2 (Homo sapiens). > 100 µM

From: paper PMC4667271
